The values you see were collected from ChEMBL document CHEMBL1201862.

# procedure text: Shn3 3'UTR reporter inhibitors, dose response, cell-based, Clone20 osteoblasts, firefly luciferase, cherry-picked (AID 624132);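 further: firefly luciferase luminescence from reporter carrying the Shn3 3'UTR in osteoblasts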
# Type: functional
Activity calls are given as the source filed them.
compounds and their reported AC50

{"columns": ["structure smiles string", "AC50"],
 "data": [
  ["CCN1C(=O)C(=Cc2cccc(OC)c2Oc2ccc([N+](=O)[O-])cc2[N+](=O)[O-])SC1=S", "1890 nM (active)"],
  ["CCOc1ccc(S(=O)(=O)NCc2ccncc2)cc1", "261 nM (active)"],
  ["CCOC(=O)c1c2c(n(Cc3ccccc3)c1C)C(=O)C(=O)c1ccccc1-2", "2300 nM (active)"],
  ["COc1ccc(-n2nnnc2-c2cnc(N3CCCC3)nc2C(F)(F)F)cc1", "4750 nM (active)"]
]}

====

# target or test system: Corticotropin-releasing factor receptor 2/Corticotropin-releasing factor-binding protein (Homo sapiens, UniProt P24387+Q13324)
# Sequence (Q13324 whole entry): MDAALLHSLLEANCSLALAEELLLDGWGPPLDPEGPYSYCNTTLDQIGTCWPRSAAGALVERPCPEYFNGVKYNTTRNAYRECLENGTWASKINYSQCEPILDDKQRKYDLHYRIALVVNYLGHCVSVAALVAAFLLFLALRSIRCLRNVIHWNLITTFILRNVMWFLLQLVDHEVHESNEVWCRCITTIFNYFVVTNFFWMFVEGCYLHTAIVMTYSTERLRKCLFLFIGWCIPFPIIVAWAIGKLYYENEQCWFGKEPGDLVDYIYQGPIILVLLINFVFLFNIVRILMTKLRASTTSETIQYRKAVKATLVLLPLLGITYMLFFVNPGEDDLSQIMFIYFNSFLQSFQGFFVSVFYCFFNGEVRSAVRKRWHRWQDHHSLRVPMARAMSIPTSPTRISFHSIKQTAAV
# Sequence (P24387 whole entry): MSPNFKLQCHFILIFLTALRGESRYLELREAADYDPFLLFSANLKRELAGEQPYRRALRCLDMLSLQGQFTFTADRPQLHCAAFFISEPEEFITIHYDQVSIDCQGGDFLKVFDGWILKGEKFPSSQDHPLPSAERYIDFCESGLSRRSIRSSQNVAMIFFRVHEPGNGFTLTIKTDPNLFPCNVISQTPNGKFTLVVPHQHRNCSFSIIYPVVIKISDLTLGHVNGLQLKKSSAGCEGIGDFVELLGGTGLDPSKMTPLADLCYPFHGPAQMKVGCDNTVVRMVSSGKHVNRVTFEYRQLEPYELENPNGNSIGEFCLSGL
# procedure text: Dose Response confirmation of uHTS hits for small molecule antagonists of the CRF-binding protein and CRF-R2 receptor complex.
# Format: functional
# condition context: read-out: IC50_Mean
Active and inactive are the calls of the source.
Outcome codes: active, inactive

{"columns": ["compound", "class assignment"],
 "data": [
  ["Clc1ccccc1NN(Cc1ccncc1)c1ccccc1Cl", "active"],
  ["CCOc1ccc2c(c1)=C(NN1C(=O)c3ccccc3C1=O)C(=O)N=2", "inactive"],
  ["O=C(CSc1ccccc1)N(c1ccc(Br)cc1)c1nccs1", "inactive"],
  ["Cc1ccc(NC(=O)CSc2nnc(Cn3cnc4ccccc43)o2)c(C)c1", "active"],
  ["CCOc1ccc(/C=C(\\C#N)C(=O)NC2CC2)c(OCC)c1", "inactive"],
  ["O=C(Nc1ccc(N2CCCCCC2)cc1)c1ccccc1Cl", "inactive"],
  ["Cc1nn(Cc2ccccc2)c(Cl)c1C(=O)NC1CCCc2ccccc21 (stereo not given)", "active"],
  ["CC(C)OC(=O)c1ccccc1C(=O)c1ccc(N)c([N+](=O)[O-])c1", "active"],
  ["O=[N+]([O-])c1ccc(O)c(Nc2ncnc3ccc(Br)cc23)c1", "active"],
  ["COc1ccccc1N1CCN(Cc2c(F)cccc2Cl)CC1", "inactive"],
  ["COc1cc(OC)cc(C(=O)Nc2ccc(S(=O)(=O)Nc3cnc4ccccc4n3)cc2)c1", "inactive"],
  ["CC(C)NC(=O)CN1C(=O)CSc2ccc(S(=O)(=O)N3CCCC3)cc21", "inactive"],
  ["COc1ccc(N2C(=O)CC(c3ccc([N+](=O)[O-])cc3)C2=O)cc1 (stereo not given)", "inactive"],
  ["CCSc1nc2ccccc2n1CC(=O)N1CCCCC1", "inactive"],
  ["O=[N+]([O-])c1cccc(/C=N/NC2=NCCCCC2)c1", "inactive"]
]}

====

# target or test system: Calpain-2 catalytic subunit (Sus scrofa)
# Sequence (P43367 whole entry): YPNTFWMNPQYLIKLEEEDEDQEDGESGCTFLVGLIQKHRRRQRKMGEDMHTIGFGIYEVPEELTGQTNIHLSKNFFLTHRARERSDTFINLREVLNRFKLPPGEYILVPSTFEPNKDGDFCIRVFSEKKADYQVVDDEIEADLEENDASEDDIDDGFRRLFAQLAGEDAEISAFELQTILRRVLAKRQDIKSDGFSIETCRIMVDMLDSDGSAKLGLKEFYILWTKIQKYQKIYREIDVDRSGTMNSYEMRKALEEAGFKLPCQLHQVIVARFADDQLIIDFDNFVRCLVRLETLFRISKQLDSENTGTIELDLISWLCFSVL
# procedure text: pig calpain II inhibitor potency, dose response, biochemical, fluorogenic peptide substrate (AID 1420)
# Format: functional
compounds and their reported IC50
recorded endpoint: IC50

{"columns": ["compound", "measured"],
 "data": [
  ["O=C(CSc1nnnn1-c1ccccc1)CSc1nnnn1-c1ccccc1", "7.04 µM (not active)"],
  ["CCCCCCCCCC(=O)N1c2ccccc2NC(=O)C1CC(=O)Nc1ccc(C(=O)O)cc1 (stereo not drawn)", "21.1 µM (not active)"],
  ["CC1=C(C(=O)OCC2CCCO2)C(c2ccc(C)o2)C2=C(O)CC(c3ccc(N(C)C)cc3)CC2=N1 (stereo not drawn)", "> 50 µM (not active)"]
]}
